Target: CD3 (antibody antigen coated on the ELISA plate in Examples 1 to 3) (Homo sapiens (Human)) (UniProt P07766)
Sequence (P07766 23-126 limits assumed): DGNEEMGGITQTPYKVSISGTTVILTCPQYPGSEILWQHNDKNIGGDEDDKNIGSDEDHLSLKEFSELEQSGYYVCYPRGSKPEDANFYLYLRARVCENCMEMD
Assay: binding activity after conjugation with different R1; method not described
outcomeMeasure: Blocking fold after conjugation
The answer consists of two parts: a number and, after it, its unit.

Take a look at these entries with their results.
anti-CD3 VH-Y61C mutant conjugated with cleavable linker and R1 = PEG40K (antibody, V domains shown, cleavable linker peptide P with blocker PEG40K on Cys 61) VH: EVQLVESGGGLVQPGGSLRLSCAASGFTFSTYAMNWVRQAPGKGLEWVGRIRSKYNNYATCYADSVKDRFTISRDDSKNSLYLQMNSLKTEDTAVYYCARHGNFGNSYVSWFAYWGQGTLVTVSS VL: QTVVTQEPSLTVSPGGTVTLTCRSSTGAVTTSNYANWVQQKPGQAPRGLIGGTNKRAPGVPARFSGSLLGDKAALTLLGAQPEDEAEYFCALWYSNLWVFGGGTKLTVL | 500 fold
anti-CD3 VH-Y61C mutant conjugated with cleavable linker and R1 = PEG5K (antibody, V domains shown, cleavable linker peptide P with blocker PEG5K on Cys 61) VH: EVQLVESGGGLVQPGGSLRLSCAASGFTFSTYAMNWVRQAPGKGLEWVGRIRSKYNNYATCYADSVKDRFTISRDDSKNSLYLQMNSLKTEDTAVYYCARHGNFGNSYVSWFAYWGQGTLVTVSS VL: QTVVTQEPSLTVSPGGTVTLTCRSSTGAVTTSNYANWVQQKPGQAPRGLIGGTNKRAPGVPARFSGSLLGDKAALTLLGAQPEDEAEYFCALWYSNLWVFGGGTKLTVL | 10 fold

For the next question, use this binder.
**Query** Need Blocking fold after conjugation, item anti-CD3 antibody mutant VH-Y61C conjugated with Molecule I (+20K) (antibody, V domains shown, Molecule I (+20K; cleavable linker with PEG20K, shown only as a drawing) conjugated on Cys 61) VH: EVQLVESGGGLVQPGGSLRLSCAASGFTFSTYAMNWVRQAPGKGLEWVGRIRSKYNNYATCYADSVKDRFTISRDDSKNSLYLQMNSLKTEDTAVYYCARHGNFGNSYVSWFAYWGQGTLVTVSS VL: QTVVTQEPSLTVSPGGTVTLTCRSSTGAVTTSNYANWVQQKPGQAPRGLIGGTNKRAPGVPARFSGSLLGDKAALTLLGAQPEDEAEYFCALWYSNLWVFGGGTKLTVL
**Result** 400 fold
